Here, each record is paired with measured pEC50 data.
- EXPERIMENTAL_SYSTEM: T1, Cynomolgus monkey CDCP1 (Cynomolgus monkey, UniProt A0A2K5VLA8 30-667)
- T1 construct: construct not described
- T1 sequence: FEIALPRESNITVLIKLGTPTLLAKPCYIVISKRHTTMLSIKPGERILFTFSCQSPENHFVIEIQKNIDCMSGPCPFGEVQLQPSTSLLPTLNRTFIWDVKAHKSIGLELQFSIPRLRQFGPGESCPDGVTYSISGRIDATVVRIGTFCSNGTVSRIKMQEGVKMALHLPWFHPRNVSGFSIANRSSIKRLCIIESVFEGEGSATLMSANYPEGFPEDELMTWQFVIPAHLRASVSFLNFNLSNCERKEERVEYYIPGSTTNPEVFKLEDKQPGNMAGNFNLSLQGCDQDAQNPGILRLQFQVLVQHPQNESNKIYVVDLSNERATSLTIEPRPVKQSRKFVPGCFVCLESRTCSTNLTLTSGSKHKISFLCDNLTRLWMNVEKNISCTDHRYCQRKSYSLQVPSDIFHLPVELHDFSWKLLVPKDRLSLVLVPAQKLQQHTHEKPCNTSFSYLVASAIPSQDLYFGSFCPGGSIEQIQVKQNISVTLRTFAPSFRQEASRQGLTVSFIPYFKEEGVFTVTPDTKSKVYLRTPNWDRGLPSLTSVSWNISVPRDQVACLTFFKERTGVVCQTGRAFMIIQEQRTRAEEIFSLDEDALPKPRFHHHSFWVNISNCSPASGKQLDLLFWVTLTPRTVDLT
- MEASUREMENT_NOTES: ELISA; column head 'ELISA~EC50 Kd (nM)'
pEC50: −log10 of the molar value.

BINDER: CDCP1-004 Fab (Fab, V domains shown, Tested as Fab) VH: EVQLVESGGGLVQPGGSLRLSCAASGFNISYYYMHWVRQAPGKGLEWVASIYSSYGYTSYADSVKGRFTISADTSKNTAYLQMNSLRAEDTAVYYCARVYYGFDYWGQGTLVTVSS VL: DIQMTQSPSSLSASVGDRVTITCRASQSVSSAVAWYQQKPGKAPKLLIYSASSLYSGVPSRFSGSRSGTDFTLTISSLQPEDFATYYCQQSYYVYPITFGQGTKVEIK
pEC50: 7.46
//
BINDER: CDCP1-002 Fab (Fab, V domains shown, Tested as Fab from a synthetic Fab-phage library; Used 89Zr-labeled for PET and 125I-labeled for Bmax; also called CDCP1-4A06; CDCP1 Fab) VH: EVQLVESGGGLVQPGGSLRLSCAASGFNLSYYYIHWVRQAPGKGLEWVASIYSSSSYTSYADSVKGRFTISADTSKNTAYLQMNSLRAEDTAVYYCARAYYGFDYWGQGTLVTVSS VL: DIQMTQSPSSLSASVGDRVTITCRASQSVSSAVAWYQQKPGKAPKLLIYSASSLYSGVPSRFSGSRSGTDFTLTISSLQPEDFATYYCQQSYYYYPITFGQGTKVEIK
pEC50: 7.71
//
BINDER: CDCP1-008 Fab (Fab, V domains shown, Tested as Fab) VH: EVQLVESGGGLVQPGGSLRLSCAASGFNISSYYMHWVRQAPGKGLEWVASIYPYSGYTYYADSVKGRFTISADTSKNTAYLQMNSLRAEDTAVYYCARAYYAMDYWGQGTLVTVSS VL: DIQMTQSPSSLSASVGDRVTITCRASQSVSSAVAWYQQKPGKAPKLLIYSASSLYSGVPSRFSGSRSGTDFTLTISSLQPEDFATYYCQQSYYVYPITFGQGTKVEIK
pEC50: 7.01

The reported measurements were obtained from patent US20210179729A1.
